Item-by-item account of pKd
- SYSTEM: T1, PUF4 RNA-binding domain (Saccharomyces cerevisiae, UniProt P25339 537-888)
- T1 sequence: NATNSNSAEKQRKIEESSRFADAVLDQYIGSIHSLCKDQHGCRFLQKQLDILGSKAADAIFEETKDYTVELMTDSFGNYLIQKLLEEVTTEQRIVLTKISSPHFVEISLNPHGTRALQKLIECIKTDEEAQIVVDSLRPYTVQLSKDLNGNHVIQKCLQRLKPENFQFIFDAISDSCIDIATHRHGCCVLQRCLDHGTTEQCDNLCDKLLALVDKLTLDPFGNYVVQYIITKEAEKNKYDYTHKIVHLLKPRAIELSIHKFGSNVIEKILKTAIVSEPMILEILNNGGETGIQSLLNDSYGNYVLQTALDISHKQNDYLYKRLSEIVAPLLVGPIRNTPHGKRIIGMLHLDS
- TEST DETAILS: Mg; RNA-MaP; 20 mM Na-HEPES pH 7.4, 30 mM KOAc, 0.75 mM MgCl2, 0.1% Tween-20, 5% glycerol, 0.1 mg/mL BSA, 2 mM DTT; 25 C; 0.0125-409.6 nM protein
- PROTOCOL CONDITIONS: tags: N-His6-TEV cleaved; C-SNAP kept, Cy3B-labelled; label: tethered on chip by stalled RNA polymerase
pKd: −log10 of the molar value.
PARAMETER: pKd

>>> number("Ic_S2_P4E.1_K4.1_C4.1_H4.1_A4.1_[T5A]_[A6T]_[T7C]_F4.1_[T8G]_[A9G]_T4.1 (ssRNA) RNA: UUUGAUUAAUAUGAUAUCGUUCUUUCUUGUAAUCGGUUCUUUCUCGAUAUCAUAUUAAUCUUU")
5.75
>>> number("UCUCUUUGUAUGUGUCUCUU (ssRNA) [Ic_S1_P3E.1_K3.1_C3.1_H3.1_A3.1_[A6G]_F3.1_[A8G]_T3.1]")
6.33
>>> number("Id_iii_S4_P3E.6_K3.2_C3.3_[C-2G]_H3.2_A3.1_F3.1_T3.2 (ssRNA) RNA: UUUGACAACUGAUCGUUCUUUCUUGUUAUAUAUAUAUUCUUUCUCGAUCAGUUGUCUUU")
7.69
>>> number("UCUCUUUGUAUUAGUGUCUCUU (ssRNA) [Ib_S1_P5E.1_K5.1_C5.1_H5.1_A5.1_F5.1_[T8G]_[A10G]_T5.1]")
6.41
>>> number("UCUCUUAUCUAUAUAUAUAUCUCUU (ssRNA) [Id_i_S1_P3E.6_K3.2_C3.3_[T-3A]_[C-2T]_[T-1C]_H3.2_A3.1_F3.1_T3.2]")
6.19
>>> number("UCUCUUCGUAUAUAUACCUCUCUU (ssRNA) [Id_ii_S1_P3E.3_K3.2_C3.2_[T-1G]_H3.2_A3.1_F3.1_T3.2_[T9C]_[A10C]]")
5.77
>>> number("Ic_S4_P4E.1_K4.1_C4.1_H4.1_A4.1_[T5A]_[A6T]_F4.1_[A9C]_T4.1 (ssRNA) RNA: UUUGACAACUGAUCGUUCUUUCUUGUAAUUUCUUCUUUCUCGAUCAGUUGUCUUU")
7.19
>>> number("UCUCUUUGUAGUCUGUCUCUU (ssRNA) [Ic_S1_P4E.1_K4.1_C4.1_H4.1_A4.1_[T5G]_[A6T]_[T7C]_F4.1_[A9G]_T4.1]")
6.39
>>> number("Ib_S2_P5E.1_K5.1_C5.1_H5.1_[T3C]_A5.1_F5.1_[T8A]_T5.1 (ssRNA) RNA: UUUGAUUAAUAUGAUAUCGUUCUUUCUUGCAUUAAUAUUCUUUCUCGAUAUCAUAUUAAUCUUU")
5.90
>>> number("Ib_S4_P4E.1_K4.1_C4.1_H4.1_[G2A]_A4.1_F4.1_[A9G]_T4.1 (ssRNA) RNA: UUUGACAACUGAUCGUUCUUUCUUAUAUAUUGUUCUUUCUCGAUCAGUUGUCUUU")
6.48
>>> number("UCUCUUUAUAUUAAUAUCUCUU (ssRNA) [Ib_S1_P5E.1_K5.1_C5.1_H5.1_[G2A]_A5.1_F5.1_[T8A]_T5.1]")
6.16
>>> number("Ie_S2_P3E.2_K3.1_C3.2_[+-2CTC]_H3.1_A3.1_F3.1_T3.2 (ssRNA) RNA: UUUGAUUAAUAUGAUAUCGUUCUUUCUCCUCUUGUAUAUAUAUUCUUUCUCGAUAUCAUAUUAAUCUUU")
9.07
>>> number("Ic_S2_P4E.1_K4.1_C4.1_H4.1_A4.1_[T5A]_[A6C]_[T7G]_F4.1_[T8C]_[A9C]_T4.1 (ssRNA) RNA: UUUGAUUAAUAUGAUAUCGUUCUUUCUUGUAACGCCUUCUUUCUCGAUAUCAUAUUAAUCUUU")
6.07
>>> number("Id_ii_S2_P4E.2_K4.1_C4.2_[T-1G]_H4.1_A4.1_F4.1_T4.2_[G10A] (ssRNA) RNA: UUUGAUUAAUAUGAUAUCGUUCUUUCUCGUGUAUAUUAAUUUCUUUCUCGAUAUCAUAUUAAUCUUU")
9.50
>>> number("Ic_S2_P5E.1_K5.1_C5.1_H5.1_A5.1_[T6G]_[A7T]_F5.1_[T8C]_[T9A]_[A10T]_T5.1 (ssRNA) RNA: UUUGAUUAAUAUGAUAUCGUUCUUUCUUGUAUGUCAUUUCUUUCUCGAUAUCAUAUUAAUCUUU")
7.19
>>> number("ACAAACCUUAUAUAUAACACAAAC (ssRNA) [Id_ii_S3_P3E.3_K3.2_C3.2_H3.2_A3.1_F3.1_T3.2_[T9A]_[A10C]]")
6.29
>>> number("Ie_S2_P3E.2_K3.1_C3.2_H3.1_A3.1_F3.1_[+8CCTC]_T3.2 (ssRNA) RNA: UUUGAUUAAUAUGAUAUCGUUCUUUCUCUUGUAUAUACCUCUAUUCUUUCUCGAUAUCAUAUUAAUCUUU")
8.37
>>> number("UCUCUUUGUAAUGGUCUCUU (ssRNA) [Ic_S1_P3E.1_K3.1_C3.1_H3.1_A3.1_[T5A]_[A6T]_F3.1_[T7G]_[A8G]_T3.1]")
5.69
>>> number("Ic_S2_P5E.1_K5.1_C5.1_H5.1_A5.1_[A7T]_F5.1_[T9C]_[A10T]_T5.1 (ssRNA) RNA: UUUGAUUAAUAUGAUAUCGUUCUUUCUUGUAUUUUCUUUCUUUCUCGAUAUCAUAUUAAUCUUU")
7.79
